src = patent US5750139A

# assay summary: intra-individual pharmacokinetics, TDS versus oral tablet, one healthy volunteer
# Assay type: in vivo, human
# stated conditions: human, in vivo, po, t max of benzopyrone (I)
assay metric: Tmax (h)
Answer in h, number only, no unit symbol.

The molecule O=c1ccc2ccccc2o1 [benzopyrone, 5,6-benzo-alpha-pyrone] showed Tmax equal to 3

---

# assay summary: GCP-complying pharmacokinetic study of TDS with 14 healthy volunteers
# Assay type: in vivo, human
# stated conditions: human, blood, topical or ocular; single TDS 200 mg, application time 3 h
assay metric: concentration at 3 h (ng/mL)
Answer in ng/mL, number only, no unit symbol.

The compound O=c1ccc2ccccc2o1 [benzopyrone, 5,6-benzo-alpha-pyrone] showed concentration at 3 h equal to 23.4

---

# assay summary: 96 h application of a TDS: bioavailability, blood levels of benzopyrone during application and after removal
# stated conditions: human, blood, topical or ocular, 200 mg
assay metric: concentration at 72 h (ng/mL)
Answer in ng/mL, number only, no unit symbol.

The molecule O=c1ccc2ccccc2o1 [benzopyrone, 5,6-benzo-alpha-pyrone] showed concentration at 72 h equal to 6.1
